# System Name: CD117 on Kasumi-1 cells and on primary human CD34+ bone marrow cells (human), P10721
# Run Description: cell-based or functional assay
Overview of recorded % Efficacy, in vitro hCD34 cell killing assay for various binders
# number only, unit % dropped from output

>  <Binder>
CK6 S239C-PNU (antibody, V domains shown, here or on the partner: PNU (DNA topoisomerase I/II inhibitor) conjugated, Fc modification S239C (printed S2390 in Table 4), DAR 1.4) VH: QVQLVQSGAAVKKPGESLKISCKGSGYRFTSYWIGWVRQMPGKGLEWMGIIYPGDSDTRYSPSFQGQVTISAGKSISTAYLQWSSLKASDTAMYYCARHGRGYNGYEGAFDIWGQGTMVTVSS VL: AIQLTQSPSSLSASVGDRVTITCRASQGISSALAWYQQKPGKAPKLLIYDASSLESGVPSRFSGSGSGTDFTLTISSLQPEDFATYYCQQFNSYPLTFGGGTKVEIK

>  <Unit>
%

>  <Numeric Readout>
74.4

$$$$
>  <Binder>
CK6 S239C-D4 (antibody, V domains shown, here or on the partner: calicheamicin (D4) conjugated, Fc modification S239C, DAR 1.72) VH: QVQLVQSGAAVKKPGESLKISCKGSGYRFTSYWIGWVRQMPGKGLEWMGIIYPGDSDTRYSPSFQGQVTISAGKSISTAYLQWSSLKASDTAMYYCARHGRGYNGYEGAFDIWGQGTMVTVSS VL: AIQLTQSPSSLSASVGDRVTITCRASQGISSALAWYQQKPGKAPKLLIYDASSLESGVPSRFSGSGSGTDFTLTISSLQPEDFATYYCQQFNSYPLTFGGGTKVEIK

>  <Unit>
%

>  <Numeric Readout>
52.3

$$$$
>  <Binder>
CK6 S239C-PBD (antibody, V domains shown, here or on the partner: PBD (DNA cross linker) conjugated, Fc modification S239C, DAR 1.7) VH: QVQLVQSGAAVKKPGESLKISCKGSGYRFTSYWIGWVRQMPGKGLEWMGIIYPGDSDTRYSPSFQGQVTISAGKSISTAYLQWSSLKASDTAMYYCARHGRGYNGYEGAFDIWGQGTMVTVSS VL: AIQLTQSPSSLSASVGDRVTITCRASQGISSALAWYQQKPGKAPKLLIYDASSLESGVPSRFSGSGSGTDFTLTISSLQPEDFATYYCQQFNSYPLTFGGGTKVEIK

>  <Unit>
%

>  <Numeric Readout>
97.3

$$$$

From here, focus on the item given below.
% Efficacy, in vitro hCD34 cell killing assay for CK6 S239C-DM (antibody, V domains shown, here or on the partner: duocarmycin (DM) conjugated, Fc modification S239C, DAR 1.65) VH: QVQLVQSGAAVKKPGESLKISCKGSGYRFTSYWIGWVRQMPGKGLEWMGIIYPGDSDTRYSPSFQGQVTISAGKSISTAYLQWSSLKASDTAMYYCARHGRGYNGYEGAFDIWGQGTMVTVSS VL: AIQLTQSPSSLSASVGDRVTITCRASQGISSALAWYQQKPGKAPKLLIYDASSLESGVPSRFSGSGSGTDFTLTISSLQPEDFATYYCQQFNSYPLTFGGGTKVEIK is 66.2
